# testProtocol: Toxicity liver stage against HepG2, at 10uM
# Assay type: cell-based
# Set-up: test concentration 10 uM, cell line HepG2-A16-CD81EGFP
# testContext: human, HepG2-A16-CD81EGFP cells; read-out: INHIBITION

{"columns": ["compound", "cytotoxicity at 10 µM (%)"],
 "data": [
  ["CCCNC(=O)Nc1cc2c(cc1SC)OCCO2", -19],
  ["CC(C)Oc1cccc(CN2CCC(C(C)N3CCOCC3)CC2)c1 (stereo not drawn)", -5.84],
  ["c1ccc(C[C@H]2CN(Cc3nccs3)CC[C@H]2OCC2CC2)cc1", 5.27],
  ["CCOCCCNC(=O)Nc1ccc(F)c(C(N)=O)c1", -16.9],
  ["CNC(=O)N(Cc1c(F)cccc1F)C1CCCC1", 8.23],
  ["CCc1c(C(=O)N2CCN(c3ncccn3)CC2)cnn1C(C)(C)C", -1.91],
  ["CNC(=O)CCN1CCC(c2nnc(Cn3cccn3)n2C2CC2)CC1", 1.53],
  ["CCS(=O)(=O)N1CCC[C@]2(C(=O)N(C)C)CN(c3ncccn3)C[C@@H]2C1", -3.26],
  ["CCN1CCN(c2ccc(CNC(=O)c3ccc(Cl)o3)cn2)CC1", -0.433],
  ["CC(C(=O)N1CCCN(Cc2cnn(C(C)C)c2)CC1)n1ccnc1 (stereo not drawn)", -11.8],
  ["Cc1cnn(CCNCc2ccc(OCc3ccccn3)cc2)c1", 0.686],
  ["CN(C)CC(=O)N1C[C@H]2CCC[C@@]2(COc2ccccn2)C1", 3.88],
  ["CCOCCC(=O)Nc1cc(C(N)=O)ccc1N1CCCC(C)C1 (stereo not drawn)", -43],
  ["Cc1ccc(N2CC[C@@H]3[C@@H]2CCN3Cc2ccsc2)nn1", -106],
  ["CCN(CC)S(=O)(=O)c1cc2c3c(c1)c(C)cc(=O)n3CC2", 5.45],
  ["Cc1cnn(CC2CCCN2Cc2c(C)noc2C)c1 (stereo not drawn)", -15.8],
  ["Cn1ncc2c(=O)[nH]c(CN3CCCC3Cc3ccccc3)nc21 (stereo not drawn)", -6.56],
  ["CN(C)C(=O)[C@@H]1C[C@@H]2CCN(Cc3ccc4c(c3)OCO4)C[C@@H]2O1", 2.26],
  ["O=C(O)c1cc2c(nc1-c1ccsc1)CCN(C1CCOC1)CC2 (stereo not drawn)", 15],
  ["Cc1nc(-c2ccsc2)ccc1C(=O)NCCN1CCN(C)CC1", -11.2],
  ["Cc1cc2cc(C(=O)N[C@@H]3CC[C@@H](N4CCNC(=O)C4)[C@@H]3O)ccc2o1", -5],
  ["N#Cc1ccc(OC[C@]23COC[C@H]2CN(c2ncccn2)C3)nc1", -1.84],
  ["CCN(C)S(=O)(=O)N1C[C@H]2CC[C@@H](C1)N(Cc1cscn1)C2=O", 11]
]}

* * *

# testProtocol: Toxicity liver stage against HepG2, at 10uM
# Format: cell-based
# Set-up: test concentration 10 uM, cell line HepG2-A16-CD81EGFP
# testContext: human, HepG2-A16-CD81EGFP cells; read-out: INHIBITION
Please use yes whenever cytotoxicity at 10 µM is not below -20%, and no whenever it is.

{"columns": ["compound", "label"],
 "data": [
  ["Cn1cc(CCCN2CCN(C(=O)c3cccc(O)c3)CC2)cn1", "no"],
  ["CC(C)N1CCC2(CC1)CC(=O)N(Cc1cc(F)cc(F)c1)C2", "yes"],
  ["O=C1COC2(CCN(CC3CC3)CC2)CN1c1ccccc1", "yes"],
  ["CCn1cc(NC(=O)NCC(O)CN2CCc3ccccc3C2)cn1 (stereo unspecified)", "yes"],
  ["O=C(N1CCOCC1)N1CCC2(CCNC2)C1 (stereo unspecified)", "yes"],
  ["Cn1nccc1-c1cnc2n1CCNC21CCN(C(=O)C2(C)CC2)CC1", "no"],
  ["CC(C)C(=O)N1CC[C@H]2N(C)CC[C@@]2(C(=O)N2CCCC2)CC1", "yes"],
  ["CS(=O)(=O)c1ccc(C(O)CN2CCC(c3ccn[nH]3)CC2)cc1 (stereo unspecified)", "yes"],
  ["N#Cc1nc(COc2ccc3c(c2)OCO3)oc1N1CCCC1", "no"],
  ["O=C(CC1CN(Cc2ccccc2)CCO1)NC1CCSCC1 (stereo unspecified)", "yes"],
  ["Cc1cc2nc(SCC(=O)N3CCOCC3)n(CC(C)C)c(=O)c2[nH]1", "yes"]
]}

* * *

# testProtocol: Toxicity liver stage against HepG2, at 10uM
# Format: cell-based
# Parameters: test concentration 10 uM, cell line HepG2-A16-CD81EGFP
# testContext: human, HepG2-A16-CD81EGFP cells; read-out: INHIBITION

{"columns": ["compound", "cytotoxicity at 10 µM / %"],
 "data": [
  ["CCn1ccnc1CN1CCCN(C(=O)Cc2ccc(C)nc2)CC1", -1.92],
  ["CC(C)Nc1cccc(C(=O)NCC(O)c2cccc(F)c2)c1 (stereo unspecified)", 4.67],
  ["CCC(C)CS(=O)(=O)NC(=O)C1CC1 (stereo unspecified)", -4.69],
  ["CN1CCN(c2ncnc3c2CCN(C(=O)c2cccn2C)CC3)CC1", -71],
  ["Cc1noc(CN2CCN(C(=O)c3ccccn3)CC2)n1", 1.35],
  ["CS(=O)(=O)CCn1ccc(NC(=O)Cc2ccccc2F)n1", 3.73]
]}

* * *

# testProtocol: Toxicity liver stage against HepG2, at 10uM
# Format: cell-based
# Design: test concentration 10 uM, cell line HepG2-A16-CD81EGFP
# testContext: human, HepG2-A16-CD81EGFP cells; read-out: INHIBITION
Some compounds, each annotated with its measured cytotoxicity at 10 µM.
parameter: cytotoxicity at 10 µM

{"columns": ["compound", "parameter", "recordedMeasurement"],
 "data": [
  ["Cc1csc([C@@H]2C[C@@H]3CCN(C(=O)c4cnccn4)C[C@H]3O2)n1", "cytotoxicity at 10 µM", "2.08%"],
  ["N#CCCN(CCC#N)C(=O)CN1CCCC1Cc1cccc(F)c1 (stereo unspecified)", "cytotoxicity at 10 µM", "-10.5%"],
  ["O=c1occ(CN2CCSCC2)c(O)c1CN1CCCC1", "cytotoxicity at 10 µM", "-7.03%"],
  ["Cc1noc(C2CCCN(C(=O)CCCNc3ncccn3)C2)n1 (stereo unspecified)", "cytotoxicity at 10 µM", "-3.92%"],
  ["CCc1ccc(C(NC(=O)CN(C)S(C)(=O)=O)C(C)(C)C)o1 (stereo unspecified)", "cytotoxicity at 10 µM", "-1.76%"],
  ["CS(=O)(=O)c1cccc(C(N)c2ccc(F)cc2)c1 (stereo unspecified)", "cytotoxicity at 10 µM", "-19.9%"]
]}

* * *

Some compounds, each annotated with its measured cytotoxicity at 10 µM.
# testProtocol: Toxicity liver stage against HepG2, at 10uM
# Format: cell-based
# Set-up: test concentration 10 uM, cell line HepG2-A16-CD81EGFP
# testContext: human, HepG2-A16-CD81EGFP cells; read-out: INHIBITION

{"columns": ["compound", "cytotoxicity at 10 µM (%)"],
 "data": [
  ["c1cnc(C2CCCN(Cc3ccsc3)C2)cn1 (configuration not stated)", -5.67],
  ["CCc1ncc(CN(C)C(=O)Nc2cccnc2N2CCCC2)s1", -8.43],
  ["Cc1ccc(OCC(O)Cn2ncc3cnn(C)c(=O)c32)cc1 (configuration not stated)", -3.49],
  ["CCN(CC)CC[C@H]1CN(C(=O)CC(C)(C)C)CC[C@H]1CC(=O)O", -0.668],
  ["CC1CCCCN1C(=O)CCc1nnc(-c2ccccc2)o1 (configuration not stated)", -4.65],
  ["O=C(CCc1ccccc1)C1CCCN(C(=O)c2cncc(Cl)c2)C1 (configuration not stated)", 1.72],
  ["Cc1nc(C(=O)N2CCN(C(C)c3ccccc3F)CC2)cs1 (configuration not stated)", -0.462],
  ["CCC1CCCCN1CCNC(=O)N1CCN(Cc2ccon2)CC1 (configuration not stated)", -2.01],
  ["c1ccc(CN2CCc3ncnc(C4CCOC4)c3CC2)nc1 (configuration not stated)", 8.88],
  ["Cc1cnn(CC2CCCCN2C(=O)c2ccccc2-n2cccn2)c1 (configuration not stated)", -8.4],
  ["Cc1cc(-c2cnc(N3CCOCC3)nc2-c2ccc(C)s2)on1", -5.72],
  ["OCCNc1cc(-c2ccncc2)ncn1", -7.88]
]}

* * *

Some compounds, each annotated with its measured cytotoxicity at 10 µM.
# testProtocol: Toxicity liver stage against HepG2, at 10uM
# Type: cell-based
# Design: test concentration 10 uM, cell line HepG2-A16-CD81EGFP
# testContext: human, HepG2-A16-CD81EGFP cells; read-out: INHIBITION

{"columns": ["compound", "readingUnit", "cytotoxicity at 10 µM"],
 "data": [
  ["CCCc1nc(C)c(C(=O)NS(=O)(=O)c2cccnc2)s1", "%", -5.8],
  ["Brc1ccc(CNCc2nnc3n2CCC3)s1", "%", -4.2],
  ["CC(=O)c1cc(CC(=O)N2CCCC2c2nc(C(C)C)no2)cs1 (stereo not given)", "%", 3.07],
  ["CCn1nc(C)c2c1cnn2CCNS(=O)(=O)c1ccccc1", "%", 6.28],
  ["CCCc1nnc(NC(=O)N2CCCC(NC(C)=O)C2)s1 (stereo not given)", "%", 5.41],
  ["Cc1ccc(NC2CCN(C(=O)c3ccc(Cl)cc3F)CC2)nn1", "%", -17.7],
  ["O=C(c1ccccn1)N1CC[C@H]2C(=O)N(c3ccsc3)CCO[C@H]2C1", "%", 11.6],
  ["N#Cc1ccc(CN2CCC(c3ccnn3CCO)CC2)cc1", "%", -1.72],
  ["Cc1ccc(S(=O)(=O)N2CSCC2C(=O)N(C)C2CC2)cc1Cl (stereo not given)", "%", -9.42],
  ["COCc1nn(C(C)C)c2c1CCN(Cc1nccs1)C2", "%", 8.42],
  ["CS(=O)(=O)Cc1ccc(C(=O)N2CCCC(n3cncn3)C2)o1 (stereo not given)", "%", -9],
  ["C1CC(CN2CCCCC2C2OCCO2)C1 (stereo not given)", "%", -12.8],
  ["CC(C)(C)CN(CCC#N)C(=O)c1cccc(CN2CCCC2)c1", "%", 0.234],
  ["Cc1nn(C)c(N(C)C)c1CNC(C)COc1ccc(F)cc1 (stereo not given)", "%", -4.38],
  ["Cc1cnn(CC2CCCN2C(=O)Cc2ccc(C)nc2)c1 (stereo not given)", "%", -1.64],
  ["NC(=O)CC1CCCCN1C(=O)Cc1cccc(Br)c1 (stereo not given)", "%", 1.77],
  ["O=C(c1occc1CN1C(=O)Cc2ccccc21)N1CCCCCC1", "%", 4.52],
  ["CNC(=O)C1Cn2ccnc2C2(CCN(Cc3nccs3)CC2)O1 (stereo not given)", "%", -67.2],
  ["CCOCC1CN(S(=O)(=O)N(C)C)Cc2cnn(CC3CC3)c21 (stereo not given)", "%", 12],
  ["COc1ccc(C(=O)N2CCCS2(=O)=O)cc1OC", "%", -17.6],
  ["OCC1COCCN(c2ncccc2C(F)(F)F)C1 (stereo not given)", "%", -9.34],
  ["O=C(C1CCCCC1)N1C[C@@H]2CCNC[C@@H]21", "%", 3.47],
  ["Cc1nc(Cc2ccc(F)cc2)cc(C2COCCN2)n1 (stereo not given)", "%", 3.44],
  ["Cc1c(S(=O)(=O)NCC(C)Cn2cc(Cl)cn2)cnn1C (stereo not given)", "%", 0.446],
  ["CC(C)NC(=O)C1(Cc2ccccc2-c2ccccc2)CCCNC1 (stereo not given)", "%", 3.05]
]}
